Target or system Staphylococcus aureus (Smith) ATCC 19636: recorded MIC listed per item.

MOLECULE | TARGET_OR_TEST_SYSTEM | MIC
Cc1ccc(C#Cc2ccc(CN3O[C@@H]([C@@H](C)O)[C@@H](CN(C)C)[C@H]3C(=O)NCCc3c[nH]c4ccccc34)cc2)cc1 | Staphylococcus aureus (Smith) ATCC 19636 | < 5 µg/mL
Cc1ccc(C#Cc2ccc(CN3OC[C@H](CN(C)C)[C@H]3C(=O)NCCc3c[nH]c4ccccc34)cc2)cc1 | Staphylococcus aureus (Smith) ATCC 19636 | 5 to 90 µg/mL
Cc1ccc(C#Cc2ccc(CN3OC(CO)CC3C(=O)NCCc3c[nH]c4ccccc34)cc2)cc1 (centres unmarked) | Staphylococcus aureus (Smith) ATCC 19636 | 5 to 90 µg/mL
Cc1ccc(C#Cc2ccc(CC3O[C@H]([C@@H](C)O)[C@H](CO)[C@@H]3C(=O)NCCc3nc4ccccc4[nH]3)cc2)cc1 (some centres unmarked) | Staphylococcus aureus (Smith) ATCC 19636 | 5 to 90 µg/mL
Cc1ccc(C#Cc2ccc(CN3OC4CNCC4C3C(=O)NCCc3c[nH]c4ccccc34)cc2)cc1.Cl (centres unmarked) | Staphylococcus aureus (Smith) ATCC 19636 | 5 to 90 µg/mL
CCOCCCNC(=O)[C@H]1[C@@H](CO)[C@@H]([C@@H](C)O)ON1Cc1ccc(C#Cc2ccc(C)cc2)cc1 | Staphylococcus aureus (Smith) ATCC 19636 | 5 to 90 µg/mL
Cc1ccc(C#Cc2ccc(CN3O[C@@H]([C@@H](C)O)[C@@H](CN(C)C)[C@@H]3C(=O)NCCc3c[nH]c4ccccc34)cc2)cc1.Cl | Staphylococcus aureus (Smith) ATCC 19636 | 5 to 90 µg/mL
Cc1ccc(C#Cc2ccc(CN3O[C@H]([C@@H](C)O)[C@H](CO)[C@@H]3C(=O)NCCN3CCCC3)cc2)cc1 | Staphylococcus aureus (Smith) ATCC 19636 | > 90 µg/mL
Cc1ccc(C#Cc2ccc(CN3O[C@H]([C@@H](C)O)[C@H](CO)[C@@H]3C(=O)NCCCNC(=O)OC(C)(C)C)cc2)cc1 | Staphylococcus aureus (Smith) ATCC 19636 | 5 to 90 µg/mL
Cc1ccc(C#Cc2ccc(CN3OC4CNCC4C3C(=O)NCCc3c[nH]c4ccccc34)cc2)cc1 (centres unmarked) | Staphylococcus aureus (Smith) ATCC 19636 | 5 to 90 µg/mL
CCCCCCCCCCCCN1O[C@@H]([C@H](C)O)[C@@H](CO)[C@H]1C(=O)NCCc1c[nH]c2ccccc12 | Staphylococcus aureus (Smith) ATCC 19636 | < 5 µg/mL
Cc1ccc(C#Cc2ccc(CN3O[C@@H]([C@@H](C)O)[C@@H](CO)[C@H]3CNCCc3c[nH]c4ccccc34)cc2)cc1 | Staphylococcus aureus (Smith) ATCC 19636 | 5 to 90 µg/mL
CCCCCCCCN1O[C@@H]([C@H](C)O)[C@@H](CO)[C@H]1C(=O)NCCc1c[nH]c2ccccc12 | Staphylococcus aureus (Smith) ATCC 19636 | 5 to 90 µg/mL
Cc1ccc(C#Cc2ccc(CN3O[C@H]([C@@H](C)O)[C@H](CO)[C@@H]3CNCCc3c[nH]c4ccccc34)cc2)cc1.Cl | Staphylococcus aureus (Smith) ATCC 19636 | 5 to 90 µg/mL
